- TEST_TARGET: T1, human beta-Klotho (human, UniProt Q86Z14 1-1044)
- T1 sequence (looked up): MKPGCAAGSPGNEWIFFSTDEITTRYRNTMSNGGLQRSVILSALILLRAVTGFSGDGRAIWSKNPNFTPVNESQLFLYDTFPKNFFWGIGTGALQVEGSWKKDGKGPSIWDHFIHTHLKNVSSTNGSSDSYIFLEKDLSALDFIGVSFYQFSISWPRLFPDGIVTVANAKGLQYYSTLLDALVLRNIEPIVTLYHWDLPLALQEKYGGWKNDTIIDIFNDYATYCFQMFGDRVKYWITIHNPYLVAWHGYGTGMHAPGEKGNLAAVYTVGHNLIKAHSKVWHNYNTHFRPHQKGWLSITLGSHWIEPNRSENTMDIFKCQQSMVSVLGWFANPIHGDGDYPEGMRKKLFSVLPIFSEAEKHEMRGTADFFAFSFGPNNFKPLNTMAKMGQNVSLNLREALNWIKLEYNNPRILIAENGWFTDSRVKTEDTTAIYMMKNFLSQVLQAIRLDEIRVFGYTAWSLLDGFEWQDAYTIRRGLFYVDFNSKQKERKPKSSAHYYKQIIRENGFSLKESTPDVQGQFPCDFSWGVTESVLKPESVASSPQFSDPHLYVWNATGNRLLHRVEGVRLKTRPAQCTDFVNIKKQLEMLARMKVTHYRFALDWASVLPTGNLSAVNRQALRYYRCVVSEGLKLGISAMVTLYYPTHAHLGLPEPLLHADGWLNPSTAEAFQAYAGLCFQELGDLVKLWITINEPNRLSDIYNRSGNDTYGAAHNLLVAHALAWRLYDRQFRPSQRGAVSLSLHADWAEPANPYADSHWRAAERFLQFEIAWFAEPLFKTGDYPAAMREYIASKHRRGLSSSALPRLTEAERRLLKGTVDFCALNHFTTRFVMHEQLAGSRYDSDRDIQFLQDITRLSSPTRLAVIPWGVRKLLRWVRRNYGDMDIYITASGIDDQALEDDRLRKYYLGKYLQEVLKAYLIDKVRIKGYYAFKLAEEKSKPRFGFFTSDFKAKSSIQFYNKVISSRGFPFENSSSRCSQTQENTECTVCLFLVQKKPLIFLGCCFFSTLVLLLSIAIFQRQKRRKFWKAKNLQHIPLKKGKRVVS
- ASSAY_REMARKS: cell-based or functional assay
pERK-HEK293-Beta-klotho without HSA [EC50 (nM)] Median Value overview

BINDER	MEASURED_VALUE
(Q28R, K56R, K59R, K69R, D102T, N121Q, K122R, D159E, M168L, G174A, Y179F) Gly-FGF21 (ligand) GHPIPDSSPLLQFGGQVRQRYLYTDDAQRTEAHLEIREDGTVGGAADQSPESLLQLRALRPGVIQILGVRTSRFLCQRPDGALYGSLHFDPEACSFRELLLETGYNVYQSEAHGLPLHLPGQRSPHRDPAPRGPARFLPLPGLPPALPEPPGILAPQPPEVGSSDPLSLVGPSQARSPSFAS	15 nM
(K56R, K59R, K69R, D102E, N121Q, K122R, M168L) GSGSG-FGF21 (ligand) GSGSGHPIPDSSPLLQFGGQVRQRYLYTDDAQQTEAHLEIREDGTVGGAADQSPESLLQLRALRPGVIQILGVRTSRFLCQRPDGALYGSLHFDPEACSFRELLLEEGYNVYQSEAHGLPLHLPGQRSPHRDPAPRGPARFLPLPGLPPALPEPPGILAPQPPDVGSSDPLSLVGPSQGRSPSYAS	6.6 nM

## Task Report pERK-HEK293-Beta-klotho without HSA [EC50 (nM)] Median Value for (S71C, D102E, N121Q, L166F, S167G, M168L, 169aT, P171L, S172E, Q173A, G174V, Y179F, A180E, S181K) Ala-FGF21 (ligand) AHPIPDSSPLLQFGGQVRQRYLYTDDAQQTEAHLEIREDGTVGGAADQSPESLLQLKALKPGVIQILGVKTCRFLCQRPDGALYGSLHFDPEACSFRELLLEEGYNVYQSEAHGLPLHLPGQKSPHRDPAPRGPARFLPLPGLPPALPEPPGILAPQPPDVGSSDPFGLVTGLEAVRSPSFEK please.
## Result 3.3 nM
